settings: 333.15 K; 101.33 kPa; Liquid; Vibrating tube method
Quantity kind: mass density (kg/m3)

Molecule | Measurement
CCCCCC[n+]1ccn(C)c1.O=S(=O)([N-]S(=O)(=O)C(F)(F)F)C(F)(F)F | 1340.5
CCCCn1cc[n+](CCC(C)C)c1.O=S(=O)([N-]S(=O)(=O)C(F)(F)F)C(F)(F)F | 1287.4
CCCCn1cc[n+](C(CC)CC)c1.O=S(=O)([N-]S(=O)(=O)C(F)(F)F)C(F)(F)F | 1288.7
CCCC[n+]1ccn(C2CCCC2)c1.O=S(=O)([N-]S(=O)(=O)C(F)(F)F)C(F)(F)F | 1343.1
CCCCC[n+]1ccn(CCCC)c1.O=S(=O)([N-]S(=O)(=O)C(F)(F)F)C(F)(F)F | 1286.5

---

assay: molar heat capacity at constant pressure; settings: 297.15 K; 101.33 kPa; Liquid; DSC
Numbers after ± are expanded uncertainties.

Molecule | molar heat capacity at constant pressure
CCCCn1cc[n+](C(CC)CC)c1.O=S(=O)([N-]S(=O)(=O)C(F)(F)F)C(F)(F)F | 695.85 ± 27 J/K/mol
CCCCC[n+]1ccn(CCCC)c1.O=S(=O)([N-]S(=O)(=O)C(F)(F)F)C(F)(F)F | 686.63 ± 27 J/K/mol
CCCC[n+]1ccn(C2CCCC2)c1.O=S(=O)([N-]S(=O)(=O)C(F)(F)F)C(F)(F)F | 651.28 ± 25 J/K/mol
CCCCn1cc[n+](CCC(C)C)c1.O=S(=O)([N-]S(=O)(=O)C(F)(F)F)C(F)(F)F | 685.11 ± 27 J/K/mol

---

Each entry below lists one item and its recorded speed of sound value.
details: 319.15 K; 101.33 kPa; Liquid; Sing-around technique in a fixed-path interferometer
Quantity kind: speed of sound (m/s)

Molecule | Quantity kind | Unit | Measurement
CCCC[n+]1ccn(C2CCCC2)c1.O=S(=O)([N-]S(=O)(=O)C(F)(F)F)C(F)(F)F | speed of sound | m/s | 1221.4
CCCCn1cc[n+](C(CC)CC)c1.O=S(=O)([N-]S(=O)(=O)C(F)(F)F)C(F)(F)F | speed of sound | m/s | 1164.2
CCCCC[n+]1ccn(CCCC)c1.O=S(=O)([N-]S(=O)(=O)C(F)(F)F)C(F)(F)F | speed of sound | m/s | 1166.3
CCCCn1cc[n+](CCC(C)C)c1.O=S(=O)([N-]S(=O)(=O)C(F)(F)F)C(F)(F)F | speed of sound | m/s | 1169.5

---

assay: molar heat capacity at constant pressure; settings: 327.15 K; 101.33 kPa; Liquid; DSC
Quantity kind: molar heat capacity at constant pressure (J/K/mol)

Molecule | Unit | Measurement
CCCCn1cc[n+](C(CC)CC)c1.O=S(=O)([N-]S(=O)(=O)C(F)(F)F)C(F)(F)F | J/K/mol | 719.58
CCCCn1cc[n+](CCC(C)C)c1.O=S(=O)([N-]S(=O)(=O)C(F)(F)F)C(F)(F)F | J/K/mol | 707.93
CCCC[n+]1ccn(C2CCCC2)c1.O=S(=O)([N-]S(=O)(=O)C(F)(F)F)C(F)(F)F | J/K/mol | 673.49
CCCCC[n+]1ccn(CCCC)c1.O=S(=O)([N-]S(=O)(=O)C(F)(F)F)C(F)(F)F | J/K/mol | 708.69

---

details: 309.15 K; 101.33 kPa; Liquid; Vibrating tube method
Numbers after ± are expanded uncertainties.
Each entry below lists one item and its recorded mass density value.
Quantity kind: mass density

Molecule | Measurement
CCCCn1cc[n+](CCC(C)C)c1.O=S(=O)([N-]S(=O)(=O)C(F)(F)F)C(F)(F)F | 1308.4 ± 9.3 kg/m3
CCCCn1cc[n+](C(CC)CC)c1.O=S(=O)([N-]S(=O)(=O)C(F)(F)F)C(F)(F)F | 1309.7 ± 9.4 kg/m3
CCCC[n+]1ccn(C2CCCC2)c1.O=S(=O)([N-]S(=O)(=O)C(F)(F)F)C(F)(F)F | 1364.7 ± 10 kg/m3
CCCCC[n+]1ccn(CCCC)c1.O=S(=O)([N-]S(=O)(=O)C(F)(F)F)C(F)(F)F | 1307.6 ± 9.3 kg/m3

---

assay: molar heat capacity at constant pressure; settings: 332.15 K; 101.33 kPa; Liquid; DSC
Each entry below lists one item and its recorded molar heat capacity at constant pressure value.

Molecule | molar heat capacity at constant pressure [J/K/mol]
CCCCn1cc[n+](CCC(C)C)c1.O=S(=O)([N-]S(=O)(=O)C(F)(F)F)C(F)(F)F | 711.97
CCCCn1cc[n+](C(CC)CC)c1.O=S(=O)([N-]S(=O)(=O)C(F)(F)F)C(F)(F)F | 723.24
CCCCC[n+]1ccn(CCCC)c1.O=S(=O)([N-]S(=O)(=O)C(F)(F)F)C(F)(F)F | 712.64
CCCC[n+]1ccn(C2CCCC2)c1.O=S(=O)([N-]S(=O)(=O)C(F)(F)F)C(F)(F)F | 677.56

---

Each entry below lists one item and its recorded mass density value.
details: 305.15 K; 101.33 kPa; Liquid; Vibrating tube method

Molecule | mass density, kg/m3
CCCCn1cc[n+](C(CC)CC)c1.O=S(=O)([N-]S(=O)(=O)C(F)(F)F)C(F)(F)F | 1313.2
CCCC[n+]1ccn(C2CCCC2)c1.O=S(=O)([N-]S(=O)(=O)C(F)(F)F)C(F)(F)F | 1368.4
CCCCC[n+]1ccn(CCCC)c1.O=S(=O)([N-]S(=O)(=O)C(F)(F)F)C(F)(F)F | 1311.1
CCCCn1cc[n+](CCC(C)C)c1.O=S(=O)([N-]S(=O)(=O)C(F)(F)F)C(F)(F)F | 1311.9

---

experiment: molar heat capacity at constant pressure; conditions: 300.15 K; 101.33 kPa; Liquid; DSC
Each entry below lists one item and its recorded molar heat capacity at constant pressure value.

Molecule | molar heat capacity at constant pressure [J/K/mol]
CCCCC[n+]1ccn(CCCC)c1.O=S(=O)([N-]S(=O)(=O)C(F)(F)F)C(F)(F)F | 688.62
CCCCn1cc[n+](C(CC)CC)c1.O=S(=O)([N-]S(=O)(=O)C(F)(F)F)C(F)(F)F | 698.18
CCCCn1cc[n+](CCC(C)C)c1.O=S(=O)([N-]S(=O)(=O)C(F)(F)F)C(F)(F)F | 687.15
CCCC[n+]1ccn(C2CCCC2)c1.O=S(=O)([N-]S(=O)(=O)C(F)(F)F)C(F)(F)F | 653.46

---

Each entry below lists one item and its recorded speed of sound value.
conditions: 321.15 K; 101.33 kPa; Liquid; Sing-around technique in a fixed-path interferometer

Molecule | Unit | speed of sound
CCCC[n+]1ccn(C2CCCC2)c1.O=S(=O)([N-]S(=O)(=O)C(F)(F)F)C(F)(F)F | m/s | 1216.7
CCCCC[n+]1ccn(CCCC)c1.O=S(=O)([N-]S(=O)(=O)C(F)(F)F)C(F)(F)F | m/s | 1161.8
CCCCn1cc[n+](C(CC)CC)c1.O=S(=O)([N-]S(=O)(=O)C(F)(F)F)C(F)(F)F | m/s | 1159.8
CCCCn1cc[n+](CCC(C)C)c1.O=S(=O)([N-]S(=O)(=O)C(F)(F)F)C(F)(F)F | m/s | 1165

---

conditions: 311.15 K; 101.33 kPa; Liquid; Vibrating tube method

Molecule | mass density, kg/m3
CCCC[n+]1ccn(C2CCCC2)c1.O=S(=O)([N-]S(=O)(=O)C(F)(F)F)C(F)(F)F | 1362.9
CCCCC[n+]1ccn(CCCC)c1.O=S(=O)([N-]S(=O)(=O)C(F)(F)F)C(F)(F)F | 1305.8
CCCCn1cc[n+](CCC(C)C)c1.O=S(=O)([N-]S(=O)(=O)C(F)(F)F)C(F)(F)F | 1306.6
CCCCn1cc[n+](C(CC)CC)c1.O=S(=O)([N-]S(=O)(=O)C(F)(F)F)C(F)(F)F | 1307.9

---

details: 295.15 K; 101.33 kPa; Liquid; Vibrating tube method
± gives the expanded uncertainty stated by the source.
Each entry below lists one item and its recorded mass density value.
Quantity kind: mass density

Molecule | Quantity kind | Measurement
CCCCn1cc[n+](C(CC)CC)c1.O=S(=O)([N-]S(=O)(=O)C(F)(F)F)C(F)(F)F | mass density | 1322.2 ± 9.5 kg/m3
CCCCn1cc[n+](CCC(C)C)c1.O=S(=O)([N-]S(=O)(=O)C(F)(F)F)C(F)(F)F | mass density | 1320.8 ± 9.5 kg/m3
CCCCC[n+]1ccn(CCCC)c1.O=S(=O)([N-]S(=O)(=O)C(F)(F)F)C(F)(F)F | mass density | 1320.1 ± 9.5 kg/m3
CCCC[n+]1ccn(C2CCCC2)c1.O=S(=O)([N-]S(=O)(=O)C(F)(F)F)C(F)(F)F | mass density | 1377.5 ± 10 kg/m3
